- Assay explanation: Selectivity index, ratio of CC50 for human HuH7 cells to EC50 for DENV2 infected in human HuH7 cells
- Type: toxicity, cell-based
- Test settings: read-out: Ratio CC50/EC50
Readout name: selectivity ratio

input_smiles=CC(C)=CCc1c2c(c3c(c1O)c(=O)c1cccc(O)c1n3C)C=CC(C)(C)O2 readout_name="selectivity ratio" result_value=6.3
